Value source: ChEMBL document CHEMBL3259614

Measured MIC of individual entries
Test system: Aspergillus fumigatus
Test Summary: Antimicrobial activity against Aspergillus fumigatus 7544 after 48 hrs by serial dilution method
Assay type: functional
Experimental Conditions: Aspergillus fumigatus, 7544, 48 h
Measurement Type: MIC

molecule=C[C@@H](N1CCn2nc(-c3ccc(F)cc3F)nc2C1)[C@](O)(Cn1cncn1)c1ccc(F)cc1F meas_value="> 64 µg/mL"
molecule=C[C@@H](N1CCn2nnc(-c3cncnc3)c2C1)[C@](O)(Cn1cncn1)c1ccc(F)cc1F meas_value="> 16 µg/mL"
molecule="OC(Cn1cncn1)(Cn1cncn1)c1ccc(F)cc1F [FLUCONAZOLE]" meas_value="> 64 µg/mL"
molecule=C[C@@H](N1CCc2sc(-c3cccc(Cl)c3)cc2C1)[C@](O)(Cn1cncn1)c1ccc(F)cc1F meas_value="> 64 µg/mL"
